Target: COVID-19 WT Mpro (Severe acute respiratory syndrome coronavirus 2, UniProt P0DTD1)
Construct: The C-His6-tagged COVID-19 WT Mpro (NC_045512); His6 (C)
Assay: biochemical
Settings: WT Mpro 25 nM, substrate 25 μM, 30 min pre-incubation; several values in a cell = repeat determinations
measured-property: IC50 (nM)
Number in nM, nothing else.

For the molecule "CC(C)(C)[C@H](NC(=O)c1nc2ccccc2[nH]1)C(=O)N1C[C@H]2[C@@H]([C@H]1C(=O)N[C@H](C#N)C[C@@H]1CCNC1=O)C2(C)C" , give its measured IC50 value.
7880

For the molecule "CC(C)(C)[C@H](NC(=O)N1CCOCC1)C(=O)N1C[C@H]2[C@@H]([C@H]1C(=O)N[C@H](C#N)C[C@@H]1CCNC1=O)C2(C)C" , give its measured IC50 value.
224

For the molecule "CC(C)(C)[C@H](NC(=O)c1cc2ccccc2s1)C(=O)N1C[C@H]2[C@@H]([C@H]1C(=O)N[C@H](C#N)C[C@@H]1CCNC1=O)C2(C)C" , give its measured IC50 value.
410

For the molecule "CC(C)(C)[C@H](NC(=S)NC1CCCCC1)C(=O)N1C[C@H]2[C@@H]([C@H]1C(=O)N[C@H](C#N)C[C@@H]1CCNC1=O)C2(C)C" , give its measured IC50 value.
1230

====

Tested on: human coronavirus (HCoV) 229E
Test: microbe, parasite or virus in culture
Assay type: cell-based, human coronavirus 229E
Settings: unidentified human coronavirus, 72 h, MRCS cells, HCoV 229E, 3 days, CellTiter Glo; read-out: 229E CPE EC50
EC50 less than 700 nM is True; EC50 greater than or equal to 700 nM is False.

Please state whether EC50 is below 700 nM for "CC(C)(C)[C@H](NC(=O)C=C(C(F)(F)F)C(F)(F)F)C(=O)N1C[C@H]2[C@@H]([C@H]1C(=O)N[C@H](C#N)C[C@@H]1CCNC1=O)C2(C)C"
False

Please state whether EC50 is below 700 nM for "CC(C)(C)[C@H](NC(=S)NC1CCCC1)C(=O)N1C[C@H]2[C@@H]([C@H]1C(=O)N[C@H](C#N)C[C@@H]1CCNC1=O)C2(C)C"
False

Please state whether EC50 is below 700 nM for "CC(C)(C)[C@H](NC(=O)CC(F)(F)F)C(=O)N1C[C@H]2[C@@H]([C@H]1C(=O)N[C@H](C#N)C[C@@H]1CCNC1=O)C2(C)C"
True

Please state whether EC50 is below 700 nM for "COC(C)(C)C(=O)N[C@H](C(=O)N1C[C@H]2[C@@H]([C@H]1C(=O)N[C@H](C#N)C[C@@H]1CCNC1=O)C2(C)C)C(C)(C)C"
False

Please state whether EC50 is below 700 nM for "Cn1c(C(=O)N[C@H](C(=O)N2C[C@H]3[C@@H]([C@H]2C(=O)N[C@H](C#N)C[C@@H]2CCNC2=O)C3(C)C)C(C)(C)C)cc2ccccc21"
False

Please state whether EC50 is below 700 nM for CC(C)(C)OC(=O)N1c2ccccc2CC1C(=O)N[C@H](C(=O)N1C[C@H]2[C@@H]([C@H]1C(=O)N[C@H](C#N)C[C@@H]1CCNC1=O)C2(C)C)C(C)(C)C (stereo partly drawn)
False

Please state whether EC50 is below 700 nM for "COc1ccccc1S(=O)(=O)N[C@H](C(=O)N1C[C@H]2[C@@H]([C@H]1C(=O)N[C@H](C#N)C[C@@H]1CCNC1=O)C2(C)C)C(C)(C)C"
False

Please state whether EC50 is below 700 nM for "CC(C)=C(Cl)C(=O)N[C@H](C(=O)N1C[C@H]2[C@@H]([C@H]1C(=O)N[C@H](C#N)C[C@@H]1CCNC1=O)C2(C)C)C(C)(C)C"
True

Please state whether EC50 is below 700 nM for "CC(C)(C)[C@H](NC(=O)c1ccc2cncn2c1)C(=O)N1C[C@H]2[C@@H]([C@H]1C(=O)N[C@H](C#N)C[C@@H]1CCNC1=O)C2(C)C"
False

Please state whether EC50 is below 700 nM for "C=CCS(=O)(=O)N[C@H](C(=O)N1C[C@H]2[C@@H]([C@H]1C(=O)N[C@H](C#N)C[C@@H]1CCNC1=O)C2(C)C)C(C)(C)C"
True

Please state whether EC50 is below 700 nM for "Cc1cc(S(=O)(=O)N[C@H](C(=O)N2C[C@H]3[C@@H]([C@H]2C(=O)N[C@H](C#N)C[C@@H]2CCNC2=O)C3(C)C)C(C)(C)C)sc1C"
True

Please state whether EC50 is below 700 nM for "CC(C)(C)[C@H](NS(=O)(=O)c1ccc(C(F)(F)F)cc1)C(=O)N1C[C@H]2[C@@H]([C@H]1C(=O)N[C@H](C#N)C[C@@H]1CCNC1=O)C2(C)C"
True

Please state whether EC50 is below 700 nM for "CC(C)(C)[C@H](NS(=O)(=O)c1cccnc1)C(=O)N1C[C@H]2[C@@H]([C@H]1C(=O)N[C@H](C#N)C[C@@H]1CCNC1=O)C2(C)C"
False

Please state whether EC50 is below 700 nM for "CC(C)(C)[C@H](NS(=O)(=O)c1cccs1)C(=O)N1C[C@H]2[C@@H]([C@H]1C(=O)N[C@H](C#N)C[C@@H]1CCNC1=O)C2(C)C"
True

Please state whether EC50 is below 700 nM for "CC(C)(C)[C@H](NS(=O)(=O)c1cc2ccccc2s1)C(=O)N1C[C@H]2[C@@H]([C@H]1C(=O)N[C@H](C#N)C[C@@H]1CCNC1=O)C2(C)C"
True

Please state whether EC50 is below 700 nM for "CC(C)(C)[C@H](NC(=O)C(Cl)(Cl)C(F)(F)F)C(=O)N1C[C@H]2[C@@H]([C@H]1C(=O)N[C@H](C#N)C[C@@H]1CCNC1=O)C2(C)C"
True

Please state whether EC50 is below 700 nM for "C=CS(=O)(=O)N[C@H](C(=O)N1C[C@H]2[C@@H]([C@H]1C(=O)N[C@H](C#N)C[C@@H]1CCNC1=O)C2(C)C)C(C)(C)C"
False

Please state whether EC50 is below 700 nM for "CC(C)(C)[C@H](NC(=O)C(F)(F)C(F)(F)Cl)C(=O)N1C[C@H]2[C@@H]([C@H]1C(=O)N[C@H](C#N)C[C@@H]1CCNC1=O)C2(C)C"
True

Please state whether EC50 is below 700 nM for "CC(C)(C)[C@H](NC(=O)c1c(F)c(F)c(F)c(F)c1F)C(=O)N1C[C@H]2[C@@H]([C@H]1C(=O)N[C@H](C#N)C[C@@H]1CCNC1=O)C2(C)C"
False

Please state whether EC50 is below 700 nM for CC(C)(C)[C@H](NC(=O)C1CC2CCC(C1)O2)C(=O)N1C[C@H]2[C@@H]([C@H]1C(=O)N[C@H](C#N)C[C@@H]1CCNC1=O)C2(C)C (stereo partly drawn)
False

Please state whether EC50 is below 700 nM for "CC(C)(C)[C@H](NC(=S)NC1CC1)C(=O)N1C[C@H]2[C@@H]([C@H]1C(=O)N[C@H](C#N)C[C@@H]1CCNC1=O)C2(C)C"
False

Where do these numbers come from? They come from patent US11760722B2.
